# maps each entry to its inhibition
Assay remarks: ATP-evoked calcium signal inhibitors, parental CHO, primary screen, counter-screen for OX1R antagonist project, cell-based, fluorescence, Fluo-8 calcium dye (AID 463079);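 also: 0% = ATP-challenged DMSO wells and 100% = DMSO wells without ATP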
Conditions used: parental CHO-K1, ATP-induced calcium, Fluo-8 fluorescence; at 5.6 µM; stronger effect = higher value
The campaign covered roughly 330,000 compounds. About 2,000 (0.61%) were called active. The sample holds actives, similar compounds and a random draw of the others, so the mix is not that of the screen.
Reported metric: inhibition (%)

> print(dat)
                                   compound  experimental.result
1  CC(C)c1cc(C(N)=O)c(NC(=O)c2cccc(COc3ccc(Br)cc3)c2)s1                -12.5
2  NNC(=O)CNC(c1ccccc1)c1cc(Cl)ccc1NC(=O)c1ccccc1 (stereo not drawn)                -31.4
3  CCOC(=O)Cn1c(=O)oc2cc(S(=O)(=O)N(C)Cc3ccco3)ccc21                 4.07
